Documented viability, T/C across a set of molecules
# Tested on: 857933-349-R-J2-PDC complex spheroids, viability
# protocolDetails: Anticancer human tumor 857933-349-R-J2-PDC patient-derived colon adenocarcinoma cell line growth inhibition [GQUAD]
# cond: second compound 0.1 µM; first compound 1 µM; hits give low values
Dear colleague, please return just the value in %, with no unit written.

Before answering, review these 5 worked examples.
COc1ccc([C@@H](O)c2cc(-c3ncnc4cc(N5CCOCC5)ccc34)c(F)cc2Cl)nn1 + CN(C)c1ccc(Nc2c3ccc(NC(=O)CCN4CCCC4)cc3nc3cc(NC(=O)CCN4CCCC4)ccc23)cc1 | 94.2
CC1COCCN1c1cc(C2(S(C)(=N)=O)CC2)nc(-c2ccnc3[nH]ccc23)n1 (stereo unspecified) + Cc1cnc(CNC(=O)c2c(=O)c3ccc(N4CCCN(C)CC4)nc3n3c2sc2ccccc23)cn1 | 39.1
CCCS(=O)(=O)Nc1ccc(F)c(C(=O)c2c[nH]c3ncc(-c4ccc(Cl)cc4)cc23)c1F + CN(C)c1ccc(Nc2c3ccc(NC(=O)CCN4CCCC4)cc3nc3cc(NC(=O)CCN4CCCC4)ccc23)cc1 | 106
CC1COCCN1c1cc(-c2ccnn2C)c2ccnc(-c3ccn[nH]3)c2n1 (stereo unspecified) + Cc1cnc(CNC(=O)c2c(=O)c3ccc(N4CCCN(C)CC4)nc3n3c2sc2ccccc23)cn1 | 23.6
CC(C)n1c(=O)n(C)c2cnc3cc(F)c(-c4ccc(OCCCN5CCCCC5)nc4)cc3c21 + CN(C)c1ccc(Nc2c3ccc(NC(=O)CCN4CCCC4)cc3nc3cc(NC(=O)CCN4CCCC4)ccc23)cc1 | 105

Next molecule, viability, T/C to be filled in.
Recorded viability, T/C of C=CC(=O)N1CCN(c2nc(=O)n(-c3c(C)ccnc3C(C)C)c3nc(-c4c(O)cccc4F)c(F)cc23)C(C)C1 (stereo unspecified) + Cc1[nH]c2ccc(F)cc2c1-c1nc2c3cccnc3c3ncccc3c2[nH]1 , please.
104

###

This section presents compounds with their documented viability, T/C values.
# System: 857933-349-R-J2-PDC complex spheroids, viability
# protocolDetails: Anticancer human tumor 857933-349-R-J2-PDC cell line growth inhibition [GQUAD];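 further: spheroids exposed to compounds for one week before readout; percent viability relative to vehicle DMSO wells taken as 100%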
# cond: second compound 0.0316 µM; first compound 0.0316 µM; hits give low values
State the answer as a number, implicitly in %.

Solved cases (5 shown):
C=CCn1c(=O)c2cnc(Nc3ccc(N4CCN(C)CC4)cc3)nc2n1-c1cccc(C(C)(C)O)n1 + Cc1[nH]c2ccc(F)cc2c1-c1nc2c3cccnc3c3ncccc3c2[nH]1 | 107
COc1cccc2c1C(=O)c1c(O)c3c(c(O)c1C2=O)CC(O)(C(=O)CO)CC3OC1CC(N)C(O)C(C)O1 (centres undefined) + Cc1cnc(CNC(=O)c2c(=O)c3ccc(N4CCCN(C)CC4)nc3n3c2sc2ccccc23)cn1 | 72.5
C=CC(=O)N1CCN(c2nc(=O)n(-c3c(C)ccnc3C(C)C)c3nc(-c4c(O)cccc4F)c(F)cc23)C(C)C1 (centres undefined) + Cc1[nH]c2ccc(F)cc2c1-c1nc2c3cccnc3c3ncccc3c2[nH]1 | 102
COc1ncnc(C2CC2)c1-c1ncc2cnn(Cc3ccc(-c4nc(C(F)(F)F)cn4C(C)C)cc3)c2n1 + CN(C)c1ccc(Nc2c3ccc(NC(=O)CCN4CCCC4)cc3nc3cc(NC(=O)CCN4CCCC4)ccc23)cc1 | 106
Cn1ncnc1[C@H]1c2n[nH]c(=O)c3cc(F)cc(c23)N[C@@H]1c1ccc(F)cc1 + Cc1cnc(CNC(=O)c2c(=O)c3ccc(N4CCCN(C)CC4)nc3n3c2sc2ccccc23)cn1 | 95

Which viability, T/C value is on record for COc1cc(C2c3cc4c(cc3C(OC3OC5COC(C)OC5C(O)C3O)C3COC(=O)C23)OCO4)cc(OC)c1O (centres undefined) + CN(C)c1ccc(Nc2c3ccc(NC(=O)CCN4CCCC4)cc3nc3cc(NC(=O)CCN4CCCC4)ccc23)cc1 ?
98.2

Value lookup for viability, T/C; key = CC(=O)O[C@H]1C(=O)[C@@]2(C)[C@H]([C@H](OC(=O)c3ccccc3)[C@]3(O)C[C@H](OC(=O)[C@H](O)[C@@H](NC(=O)c4ccccc4)c4ccccc4)C(C)=C1C3(C)C)[C@]1(OC(C)=O)CO[C@@H]1C[C@@H]2O + Cc1cnc(CNC(=O)c2c(=O)c3ccc(N4CCCN(C)CC4)nc3n3c2sc2ccccc23)cn1
40.6

Name the reported viability, T/C value associated with the compound COc1cccc2c1C(=O)c1c(O)c3c(c(O)c1C2=O)CC(O)(C(=O)CO)CC3OC1CC(N)C(O)C(C)O1 (centres undefined) + Cc1[nH]c2ccc(F)cc2c1-c1nc2c3cccnc3c3ncccc3c2[nH]1
90.5

Can you look up the measured viability, T/C of Cc1[nH]c2ccccc2c1CCNCc1ccc(/C=C/C(=O)NO)cc1 + Cc1cnc(CNC(=O)c2c(=O)c3ccc(N4CCCN(C)CC4)nc3n3c2sc2ccccc23)cn1 for me?
86.5

For the compound shown here, O=c1[nH]cc(F)c(=O)[nH]1 + CN(C)c1ccc(Nc2c3ccc(NC(=O)CCN4CCCC4)cc3nc3cc(NC(=O)CCN4CCCC4)ccc23)cc1 , give the reported viability, T/C.
104

###

# Test system: 857933-349-R-J2-PDC complex spheroids, viability
# protocolDetails: Anticancer human tumor 857933-349-R-J2-PDC cell line growth inhibition [GQUAD];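 further: spheroids exposed to compounds for one week before readout; percent viability relative to vehicle DMSO wells taken as 100%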
# cond: second compound 10 µM; first compound 0.0316 µM; hits give low values
assayMetric: viability, T/C (%)
The response must be a number in % with no trailing unit.

CC1COCCN1c1cc(C2(S(C)(=N)=O)CC2)nc(-c2ccnc3[nH]ccc23)n1 (centres undefined) + CN(C)c1ccc(Nc2c3ccc(NC(=O)CCN4CCCC4)cc3nc3cc(NC(=O)CCN4CCCC4)ccc23)cc1 | 70.8
CCCS(=O)(=O)Nc1ccc(F)c(C(=O)c2c[nH]c3ncc(-c4ccc(Cl)cc4)cc23)c1F + Cc1cnc(CNC(=O)c2c(=O)c3ccc(N4CCCN(C)CC4)nc3n3c2sc2ccccc23)cn1 | 0.2
COc1ncnc(C2CC2)c1-c1ncc2cnn(Cc3ccc(-c4nc(C(F)(F)F)cn4C(C)C)cc3)c2n1 + Cc1cnc(CNC(=O)c2c(=O)c3ccc(N4CCCN(C)CC4)nc3n3c2sc2ccccc23)cn1 | 0.21

Next compound, viability, T/C to be filled in.
Can you look up the measured viability, T/C of C=CC(=O)N1CCN(c2nc(=O)n(-c3c(C)ccnc3C(C)C)c3nc(-c4c(O)cccc4F)c(F)cc23)C(C)C1 (centres undefined) + Cc1cnc(CNC(=O)c2c(=O)c3ccc(N4CCCN(C)CC4)nc3n3c2sc2ccccc23)cn1 for me?
1.16

###

# System: 857933-349-R-J2-PDC complex spheroids, viability
# protocolDetails: Anticancer human tumor 857933-349-R-J2-PDC cell line growth inhibition [GQUAD];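 further: spheroids exposed to compounds for one week before readout; percent viability relative to vehicle DMSO wells taken as 100%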
# cond: second compound 3.16 µM; first compound 0.1 µM; hits give low values
Reported values of viability, T/C for individual entries
Numeric answer only, unit % assumed.

COc1ccc([C@@H](O)c2cc(-c3ncnc4cc(N5CCOCC5)ccc34)c(F)cc2Cl)nn1 + Cc1[nH]c2ccc(F)cc2c1-c1nc2c3cccnc3c3ncccc3c2[nH]1 | 96.5

Reported viability, T/C, molecule COc1ccc([C@@H](O)c2cc(-c3ncnc4cc(N5CCOCC5)ccc34)c(F)cc2Cl)nn1 + CN(C)c1ccc(Nc2c3ccc(NC(=O)CCN4CCCC4)cc3nc3cc(NC(=O)CCN4CCCC4)ccc23)cc1 : ____
85.9

Please report the recorded viability, T/C for C#Cc1c(F)ccc2cc(O)cc(-c3ncc4c(N5CC6CCC(C5)N6)nc(OCC56CCCN5CC(F)C6)nc4c3F)c12 (centres undefined) + Cc1[nH]c2ccc(F)cc2c1-c1nc2c3cccnc3c3ncccc3c2[nH]1 .
83.2

Please report the recorded viability, T/C for CCCS(=O)(=O)Nc1ccc(F)c(C(=O)c2c[nH]c3ncc(-c4ccc(Cl)cc4)cc23)c1F + Cc1[nH]c2ccc(F)cc2c1-c1nc2c3cccnc3c3ncccc3c2[nH]1 .
74.2

###

# Tested on: 857933-349-R-J2-PDC complex spheroids, viability
# protocolDetails: Anticancer human tumor 857933-349-R-J2-PDC cell line growth inhibition [GQUAD];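 further: spheroids exposed to compounds for one week before readout; percent viability relative to vehicle DMSO wells taken as 100%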
# cond: second compound 3.16 µM; first compound 3.16 µM; hits give low values
assayMetric: viability, T/C

Answered cases to consult:
COc1ncnc(C2CC2)c1-c1ncc2cnn(Cc3ccc(-c4nc(C(F)(F)F)cn4C(C)C)cc3)c2n1 + Cc1[nH]c2ccc(F)cc2c1-c1nc2c3cccnc3c3ncccc3c2[nH]1 | 92.5%
COc1cccc2c1C(=O)c1c(O)c3c(c(O)c1C2=O)CC(O)(C(=O)CO)CC3OC1CC(N)C(O)C(C)O1 (stereo not drawn) + Cc1[nH]c2ccc(F)cc2c1-c1nc2c3cccnc3c3ncccc3c2[nH]1 | 6.19%

May I ask what viability, T/C has been recorded for CC(=O)O[C@H]1C(=O)[C@@]2(C)[C@H]([C@H](OC(=O)c3ccccc3)[C@]3(O)C[C@H](OC(=O)[C@H](O)[C@@H](NC(=O)c4ccccc4)c4ccccc4)C(C)=C1C3(C)C)[C@]1(OC(C)=O)CO[C@@H]1C[C@@H]2O + CN(C)c1ccc(Nc2c3ccc(NC(=O)CCN4CCCC4)cc3nc3cc(NC(=O)CCN4CCCC4)ccc23)cc1 ?
27.2%
